System: MS2 coat protein
PROTOCOL DESCRIPTION: apparent KD of MS2 coat protein; designed switch direction (-1 OFF switch, 1 ON switch): -1; higher = weaker reporter binding
ASSAY SETUP: input ligand: FMN 200 uM
Rule: apparent KD of MS2 coat protein under 40 nM gives Not fulfilled, otherwise Fulfilled.

Previously resolved entries follow.
SEQUENCE RECORD	TEST TARGET	CLASS LABEL
AUAAAUCAUGUAGGAUAUGCGUGGCAAAGCUAUGCAGAAGGACAUGAGGAUCACCCAUGUGCUUCCGUCUGGGAACAGACGGUA [Mat - Exclusion NG 1 - Mod of JL - D34] (Eterna round: R96, puzzle: Exclusion NG 1)	MS2 coat protein	Fulfilled
CGGUAGUAUGUAGGAUAUCGGUCAGUUUCUGAUCGAGAAGGACAUGAGGAUCACCCAUGUAAAACGACCGGUUUCUGGUUGCCG [JL ENG1 3.55] (Eterna round: R96, puzzle: Exclusion NG 1)	MS2 coat protein	Not fulfilled
UGCAAGCUUAUGAGACCUCACAUGAGGAUCACCCAUGUGCUCGUCUUAUGGGCCGGCCGGCCGUUGGCCGGCCGGCC [-45.5, -68.5 kcal, A 16%] (Eterna round: R97, puzzle: Sensor, turn-off variant 1)	MS2 coat protein	Not fulfilled
AGUCGGUCAGGAUAUGCAAACGUAGACAUGAGGAUCACCCAUGUAACGUGGGCCUGGUUUGUAGAAGGGACGAGCA [EX5 #85] (Eterna round: R97, puzzle: Exclusion 5)	MS2 coat protein	Not fulfilled

API: the following record is the query input.
Item UCGUGGAUCGAGGAUAUGCCACGGACAGACGCCGCAGAAGGCGAAACAUGAGGAUCACCCAUGUGUGCCAUCCU [Eternabot (L1) Solution 52] (Eterna round: R97, puzzle: Exclusion 6) with apparent KD of MS2 coat protein of 40 nM or above?
Fulfilled

###

System: MS2 coat protein
PROTOCOL DESCRIPTION: apparent KD of MS2 coat protein, switch OFF state (with FMN for OFF switches, without FMN for ON switches); designed switch direction (-1 OFF switch, 1 ON switch): -1; higher = weaker reporter binding
ASSAY SETUP: FMN input: 0 or 200 uM; Eterna round: R93 (includes R88 designs)
Output schema: class label derived from apparent KD of MS2 coat protein. Mapping: low bin: < 30 nM; mid bin: ≥ 30 nM and < 60 nM; high bin: ≥ 60 nM

Previously resolved entries follow.
> print(dat)
                            sequence.record       test.target  class.label
1  AAAUUGUCAGGAUAUCCUAUAAUAAUAAAAUAGAGGAAAUAGGAGAAGGGACAUGAGGAUCACCCAUGUAAAAC [May 84]  MS2 coat protein      mid bin
2  UAUAUACAUGAGGAUCACCCAUGUCAGGAUAUGCGCCCAGAAUAUACAUAUGAUACAAGCAGAAGGGACACUAA [JR_Exc001_Sub205]  MS2 coat protein      mid bin
3  CAGUACUGAGGAUAUACAUGAGGAUCACCCAUGUGUUCCAGCUAGGAAACUAGCAAAAGUAGAAGGCAGUACUG [Ex3: 828]  MS2 coat protein     high bin
4  AAAACGGCAGGAUAUACAGAUGAGAACUAGACCGAAAAAAAACAUGAGGAUCACCCAUGUAGAAGGGCCAAAAA [Ex2 Malc#7]  MS2 coat protein      mid bin
5  AAAAAGUCAGGAUAUUCGGAUAGGAAAACGAAAACCUAUCCGAAGAAGGGACAUGAGGAUCACCCAUGUAAAAA [Ecls4-II]  MS2 coat protein      mid bin

Tag the class for GAGAAGUGAGGAUAUCGAAGACAGACGAAAAGUCUGUCAAACGAGAAGGCACAUGAGGAUCACCCAUGUGGGAG [Mat - Exaclusion 4 - Eli mod - D75]
high bin

What do you have for AAAACUGGAGGAUAUACAUGAGGAUCACCCAUGUGUGGAUGAGCUGAGACGGCAUCACGUAGAAGGCCACAAAA [Gilly Gone Silly 39 - Jieux - Exclusion 3] ?
mid bin

What do you have for UCCUCACAUGAGGAUCACCCAUGUUAGGAUAUGCCCGGCGGGUUCUGACCUGCCUAAAGCAGAAGGAACGUGCG [Cexequge] ?
high bin

What do you have for AGUAGAUCAGGAUAUACAUAAAUGAUAAUUAUGUAACUUUUACAUGAGGAUCACCCAUGUAGAAGGGAUCUACA [Ex2 Design 130: Not so Super Stable 18] ?
low bin

What do you have for AAGAAGUCAGGAUAUGCCAAAGAUCACGAAAGUGACAAAGGGCAGAAGGGACAUGAGGAUCACCCAUGUAAAGA [Opal 3] ?
high bin

What do you have for CUUAUGUGAGGAUAUGUACAGAAAAAAAAGGGUGUAACUGUACAGAAGGCACAUGAGGAUCACCCAUGUGAAUA [EX4 380: S S Pseudoknot 5] ?
low bin

What do you have for AGCUAGUCAGGAUAUACGAACAAGUCAAAAGACGAGAACGGACAUGAGGAUCACCCAUGUAGAAGGGACUAGCA [Diamond 7] ?
low bin

What do you have for CUUAUGUGAGGAUAUGUACAGAAAAAACUGGGUGUAACUGUACAGAAGGCACAUGAGGAUCACCCAUGUGCAAA [EX4 388: S S Pseudoknot 13] ?
mid bin

What do you have for GAAAAUGGAGGAUAUACAUGAGGAUCACCCAUGUGUAUAAAAAAAUACACAAAAGAAAGUAGAAGGCCAUAAAG [Mat - Exclusion 3 - Mayanna mod - D101] ?
high bin

What do you have for AAGAAGUCAGGAUAUGCUGCUCGUCACAAAAGUGAUGAGUAGCAGAAGGGACAUGAGGAUCACCCAUGUAAACA [Opal 34] ?
mid bin

What do you have for AAGAAACAUGAGGAUCACCCAUGUGAGGAUAUACAAAAGAAAAGAAAAGAAAGAAGAAGUAGAAGGUACAAAGG [Merenre Nemtyemsaf II] ?
low bin

What do you have for AGCUAGUCAGGAUAUACGAAAAUGAACGAAGCUGAGAAGGGACAUGAGGAUCACCCAUGUAGAAGGGACUAGCA [Diamond 34] ?
high bin

What do you have for AAAAAGUGAGGAUAUACGCGAACAAAAAUAAAAAAGAAAGCGUAGAAGGCACAUGAGGAUCACCCAUGUCCAAA [Alfred 64% 5] ?
mid bin

What do you have for AUAAGUCGAGGAUAUACGAAAUGCUAGCGAAAGCUAGCAUAACAUGAGGAUCACCCAUGUAGAAGGCGACAAUA [Tetraloop hairpin BlockHead... 61% 3] ?
low bin

What do you have for CUCAUGUCAGGAUAUGUAGCAUGAUACGAAAGUAUCAUGCUACAGAAGGGACAUGAGGAUCACCCAUGUGAUCA [Ex4: 941] ?
low bin

What do you have for AACCUGCUAGGAUAUACAGCAGGGAUUCGAAAACCCACGAAACAUGAGGAUCACCCAUGUAGAAGGAGUAGGGA [Teainis] ?
low bin
